The measurements presented in this section are drawn from patent US11492346B2.

TGT: UniProt:Q8WYB5
Sequence (Q8WYB5 whole entry): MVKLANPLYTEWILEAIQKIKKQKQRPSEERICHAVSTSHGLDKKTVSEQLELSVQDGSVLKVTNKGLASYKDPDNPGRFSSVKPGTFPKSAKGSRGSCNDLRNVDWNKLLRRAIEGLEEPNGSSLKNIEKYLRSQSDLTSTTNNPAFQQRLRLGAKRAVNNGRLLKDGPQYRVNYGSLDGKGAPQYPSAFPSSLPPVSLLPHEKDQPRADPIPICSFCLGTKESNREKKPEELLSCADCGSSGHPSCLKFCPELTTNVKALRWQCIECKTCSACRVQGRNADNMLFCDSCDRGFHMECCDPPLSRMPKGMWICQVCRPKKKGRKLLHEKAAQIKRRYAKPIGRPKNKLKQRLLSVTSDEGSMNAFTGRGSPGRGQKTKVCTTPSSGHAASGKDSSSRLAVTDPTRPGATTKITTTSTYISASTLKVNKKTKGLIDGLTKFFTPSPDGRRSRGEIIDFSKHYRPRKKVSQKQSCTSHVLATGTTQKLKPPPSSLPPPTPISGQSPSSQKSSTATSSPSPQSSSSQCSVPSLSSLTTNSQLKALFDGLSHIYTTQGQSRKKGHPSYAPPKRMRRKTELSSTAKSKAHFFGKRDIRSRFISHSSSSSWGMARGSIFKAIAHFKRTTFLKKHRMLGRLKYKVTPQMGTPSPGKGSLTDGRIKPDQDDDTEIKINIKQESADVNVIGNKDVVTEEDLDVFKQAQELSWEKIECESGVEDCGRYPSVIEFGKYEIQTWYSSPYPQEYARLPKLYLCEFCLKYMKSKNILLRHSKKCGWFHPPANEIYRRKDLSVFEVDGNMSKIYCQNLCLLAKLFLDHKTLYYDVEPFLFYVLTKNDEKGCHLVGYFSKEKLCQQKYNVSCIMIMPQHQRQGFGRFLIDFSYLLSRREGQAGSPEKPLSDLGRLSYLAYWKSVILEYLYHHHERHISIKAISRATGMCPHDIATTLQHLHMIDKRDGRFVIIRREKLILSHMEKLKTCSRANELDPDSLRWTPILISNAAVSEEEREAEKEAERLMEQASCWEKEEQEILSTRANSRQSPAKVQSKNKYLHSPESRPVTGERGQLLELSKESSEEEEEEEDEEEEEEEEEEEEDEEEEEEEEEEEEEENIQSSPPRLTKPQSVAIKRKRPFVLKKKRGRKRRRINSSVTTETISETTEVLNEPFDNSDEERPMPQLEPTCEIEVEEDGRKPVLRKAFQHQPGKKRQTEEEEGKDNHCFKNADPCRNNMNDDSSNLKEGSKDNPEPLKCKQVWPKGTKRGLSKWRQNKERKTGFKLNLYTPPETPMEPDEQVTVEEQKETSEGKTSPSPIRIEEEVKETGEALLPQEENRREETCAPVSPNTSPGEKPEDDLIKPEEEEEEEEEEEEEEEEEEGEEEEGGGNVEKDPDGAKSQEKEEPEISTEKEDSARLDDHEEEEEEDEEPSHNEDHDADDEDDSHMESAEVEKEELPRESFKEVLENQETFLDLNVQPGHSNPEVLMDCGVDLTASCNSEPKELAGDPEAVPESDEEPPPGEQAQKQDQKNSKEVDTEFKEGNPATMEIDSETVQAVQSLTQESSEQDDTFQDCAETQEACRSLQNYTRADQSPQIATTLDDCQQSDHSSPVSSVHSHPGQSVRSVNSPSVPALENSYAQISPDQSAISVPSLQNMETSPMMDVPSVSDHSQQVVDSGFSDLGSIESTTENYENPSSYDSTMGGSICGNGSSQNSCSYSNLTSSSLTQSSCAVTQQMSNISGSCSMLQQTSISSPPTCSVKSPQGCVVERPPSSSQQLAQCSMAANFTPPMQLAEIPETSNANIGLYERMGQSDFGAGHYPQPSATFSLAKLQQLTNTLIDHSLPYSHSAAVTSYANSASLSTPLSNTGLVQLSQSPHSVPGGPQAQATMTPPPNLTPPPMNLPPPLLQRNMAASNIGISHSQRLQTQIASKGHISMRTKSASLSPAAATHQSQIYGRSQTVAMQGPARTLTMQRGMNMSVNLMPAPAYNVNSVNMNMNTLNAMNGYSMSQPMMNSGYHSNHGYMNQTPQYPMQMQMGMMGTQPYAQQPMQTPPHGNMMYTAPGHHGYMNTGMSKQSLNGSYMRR
TEST PROTOCOL: KAT assay (SAMDI mass spectrometry), KAT6B
Type: biochemical
CONDITIONS: 25 μM AcCoA; read-out: KAT6b Ki at 25 μM AcCoA
pKi: −log10 of the molar value.
Kindly return rule met if reported pKi is no lower than 9; return rule not met if it is lower.

Task: Determine whether this molecule has pKi no lower than 9: COc1cccc(OC)c1S(=O)(=O)Nc1noc2cc(Cc3ccon3)cc(OC)c12 [Example 114]
Output: rule not met

Task: Determine whether this molecule has pKi no lower than 9: COc1cc2c(cc1S(=O)(=O)Nc1noc3cc(Cn4cccn4)cc(OC)c13)CCCO2 [Example 42]
Output: rule met

Task: Determine whether this molecule has pKi no lower than 9: COc1cccc(OC)c1S(=O)(=O)Nc1noc2cc(Cn3cccn3)ccc12 [Example 28]
Output: rule not met

---

TGT: KAT6A (Homo sapiens (Human), UniProt Q92794)
Sequence (Q92794 whole entry): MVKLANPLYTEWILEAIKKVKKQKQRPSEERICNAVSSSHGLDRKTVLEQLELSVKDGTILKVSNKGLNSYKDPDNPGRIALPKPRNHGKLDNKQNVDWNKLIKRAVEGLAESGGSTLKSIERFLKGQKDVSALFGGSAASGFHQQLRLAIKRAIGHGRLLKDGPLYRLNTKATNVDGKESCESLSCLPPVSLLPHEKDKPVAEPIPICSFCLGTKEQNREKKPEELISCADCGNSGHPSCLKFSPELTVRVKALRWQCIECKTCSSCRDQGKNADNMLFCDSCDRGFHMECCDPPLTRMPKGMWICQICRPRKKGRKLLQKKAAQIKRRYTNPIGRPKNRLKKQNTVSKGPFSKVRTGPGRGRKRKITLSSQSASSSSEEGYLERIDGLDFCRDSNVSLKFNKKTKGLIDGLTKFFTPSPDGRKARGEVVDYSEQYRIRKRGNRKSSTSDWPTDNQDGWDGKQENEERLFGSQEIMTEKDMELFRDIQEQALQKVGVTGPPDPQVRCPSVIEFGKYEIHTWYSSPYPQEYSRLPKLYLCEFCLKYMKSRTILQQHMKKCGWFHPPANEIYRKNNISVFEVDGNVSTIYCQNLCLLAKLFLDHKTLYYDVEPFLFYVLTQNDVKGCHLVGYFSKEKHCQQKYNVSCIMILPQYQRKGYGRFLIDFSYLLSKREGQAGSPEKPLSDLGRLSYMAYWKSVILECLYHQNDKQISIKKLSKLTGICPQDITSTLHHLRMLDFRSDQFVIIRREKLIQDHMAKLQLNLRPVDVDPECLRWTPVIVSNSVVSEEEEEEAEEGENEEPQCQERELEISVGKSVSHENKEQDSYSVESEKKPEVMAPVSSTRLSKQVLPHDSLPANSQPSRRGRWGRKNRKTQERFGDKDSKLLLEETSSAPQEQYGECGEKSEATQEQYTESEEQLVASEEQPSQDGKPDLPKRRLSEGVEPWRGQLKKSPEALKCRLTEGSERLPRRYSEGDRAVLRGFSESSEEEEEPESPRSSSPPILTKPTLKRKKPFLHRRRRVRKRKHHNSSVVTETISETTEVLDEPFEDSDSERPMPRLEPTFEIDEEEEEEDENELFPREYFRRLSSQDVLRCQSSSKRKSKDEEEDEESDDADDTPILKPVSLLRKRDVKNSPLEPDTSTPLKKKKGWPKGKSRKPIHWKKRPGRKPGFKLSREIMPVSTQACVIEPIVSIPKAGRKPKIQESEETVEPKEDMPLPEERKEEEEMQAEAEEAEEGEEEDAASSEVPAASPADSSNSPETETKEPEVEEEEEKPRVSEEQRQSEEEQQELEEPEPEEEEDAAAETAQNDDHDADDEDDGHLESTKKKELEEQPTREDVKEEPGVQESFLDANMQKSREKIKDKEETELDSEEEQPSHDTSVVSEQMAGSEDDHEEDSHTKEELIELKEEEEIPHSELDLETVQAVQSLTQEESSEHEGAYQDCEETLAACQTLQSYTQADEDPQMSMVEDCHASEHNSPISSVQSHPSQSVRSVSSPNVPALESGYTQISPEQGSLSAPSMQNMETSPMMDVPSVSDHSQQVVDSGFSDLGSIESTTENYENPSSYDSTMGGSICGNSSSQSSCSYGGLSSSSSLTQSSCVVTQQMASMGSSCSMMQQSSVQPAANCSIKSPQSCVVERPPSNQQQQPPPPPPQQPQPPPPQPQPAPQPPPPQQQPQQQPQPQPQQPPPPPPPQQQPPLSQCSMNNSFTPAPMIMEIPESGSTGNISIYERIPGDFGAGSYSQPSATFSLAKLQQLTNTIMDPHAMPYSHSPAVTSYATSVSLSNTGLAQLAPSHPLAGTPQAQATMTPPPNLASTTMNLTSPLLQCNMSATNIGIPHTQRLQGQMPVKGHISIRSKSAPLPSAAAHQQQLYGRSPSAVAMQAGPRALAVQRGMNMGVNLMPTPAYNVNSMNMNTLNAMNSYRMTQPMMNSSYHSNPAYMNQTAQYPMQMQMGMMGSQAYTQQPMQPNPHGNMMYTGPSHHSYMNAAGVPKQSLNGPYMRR
TEST PROTOCOL: KAT assay (SAMDI mass spectrometry), KAT6A
Assay type: biochemical
CONDITIONS: read-out: KAT6a Ki at 1 μM AcCoA; 1 μM AcCoA
Hi there, I'd appreciate the recorded Ki for every entry that follows.
Returns: string containing the numeric result and its unit.

Task: Given COc1ccc(OC)c(S(=O)(=O)Nc2noc3cc(Cn4cccn4)cc(OC)c23)c1 [Example 19] , state its recorded Ki.
Output: 2.18 nM

Task: Given COC(=O)c1c(C)cccc1S(=O)(=O)Nc1noc2cc(Cn3cccn3)cc(OC)c12 [Example 74] , state its recorded Ki.
Output: 24.8 nM

Task: Given COc1ccccc1S(=O)(=O)Nc1noc2cc(Cn3nccn3)cc(OC)c12 [Example 133] , state its recorded Ki.
Output: 2.9 nM

Task: Given COc1cccc(OC)c1S(=O)(=O)Nc1noc2cc(Cn3nccn3)cc(OC)c12 [Example 23] , state its recorded Ki.
Output: 1.22 nM

Task: Given COc1cc(Cn2cccn2)cc2onc(NS(=O)(=O)c3c(F)cc(C)cc3F)c12 [Example 62] , state its recorded Ki.
Output: 9.64 nM

Task: Given COc1cc(Cn2cccn2)cc2onc(NS(=O)(=O)c3cc(F)ccc3C)c12 [Example 49] , state its recorded Ki.
Output: 9.77 nM

Task: Given COc1cc2c(cc1S(=O)(=O)Nc1noc3cc(Cn4cccn4)cc(OC)c13)CCCC2 [Example 20] , state its recorded Ki.
Output: 0.34 nM

Task: Given COc1cc(Cn2cccn2)cc2onc(NS(=O)(=O)c3cc(F)cc(F)c3)c12 [Example 57] , state its recorded Ki.
Output: 16 nM

Task: Given COc1cccc(OC)c1S(=O)(=O)Nc1noc2cc(Cn3cccn3)c(OC(F)F)cc12 [Example 41] , state its recorded Ki.
Output: 0.36 nM

Task: Given COc1cccc(OC)c1S(=O)(=O)Nc1noc2cc(Cn3ccnn3)cc(OC)c12 [Example 22] , state its recorded Ki.
Output: 16.5 nM

Task: Given COc1cc(Cn2cccn2)cc2onc(NS(=O)(=O)c3cccc(F)c3F)c12 [Example 54] , state its recorded Ki.
Output: 57 nM

Task: Given COc1cc(Cn2cccn2)cc2onc(NS(=O)(=O)c3ccc(OC4CC4)cc3)c12 [Example 60] , state its recorded Ki.
Output: 9.81 nM

Task: Given Cc1ccc(S(=O)(=O)Nc2noc3cc(Cn4cccn4)c(C)cc23)cc1C [Example 131] , state its recorded Ki.
Output: 28.3 nM

Task: Given COc1cccc(OC)c1S(=O)(=O)Nc1noc2cc(Cc3ccccn3)cc(OC)c12 [Example 107] , state its recorded Ki.
Output: 1.7 nM

Task: Given COc1cc(S(=O)(=O)Nc2noc3cc(Cn4cccn4)cc(OC)c23)ccc1F [Example 82] , state its recorded Ki.
Output: 16.9 nM

Task: Given COc1cc(Cn2cccn2)cc2onc(NS(=O)(=O)c3ccc(C(F)(F)F)cc3)c12 [Example 46] , state its recorded Ki.
Output: 32.9 nM

Task: Given COc1cccc(OC)c1S(=O)(=O)Nc1noc2cc(Cn3cccn3)c(F)c(OC)c12 [Example 128] , state its recorded Ki.
Output: 0.54 nM

Task: Given COc1cc(Cn2cccn2)cc2onc(NS(=O)(=O)c3c(C)ccc4cccnc34)c12 [Example 73] , state its recorded Ki.
Output: 2.31 nM

Task: Given COc1cc(Cn2cccn2)cc2onc(NS(=O)(=O)c3cc(F)c(F)cc3F)c12 [Example 86] , state its recorded Ki.
Output: 28.9 nM

Task: Given COc1cc2c(cc1S(=O)(=O)Nc1noc3cc(Cn4cccn4)cc(OC)c13)CCCO2 [Example 42] , state its recorded Ki.
Output: 0.72 nM

Task: Given COc1cc(OC)c(S(=O)(=O)Nc2noc3cc(Cn4cccn4)cc(OC)c23)c(OC)c1 [Example 14] , state its recorded Ki.
Output: 1.12 nM

Task: Given COc1cc(Cn2cccn2)cc2onc(NS(=O)(=O)c3ccccc3C(F)(F)F)c12 [Example 52] , state its recorded Ki.
Output: 14.6 nM

Task: Given COc1cccc(OC)c1S(=O)(=O)Nc1noc2cc(Cn3cccn3)c(C3CC3)cc12 [Example 31] , state its recorded Ki.
Output: 0.32 nM

Task: Given COc1cc(Cn2cccn2)cc2onc(NS(=O)(=O)c3ccc(C)c(F)c3)c12 [Example 79] , state its recorded Ki.
Output: 5.11 nM

Task: Given CCc1ccc(OC)c(S(=O)(=O)Nc2noc3cc(Cn4cccn4)cc(OC)c23)c1 [Example 1] , state its recorded Ki.
Output: 0.55 nM

Task: Given COc1cccc(OC)c1S(=O)(=O)Nc1noc2cc(Cc3cnoc3)cc(OC)c12 [Example 122] , state its recorded Ki.
Output: 164 nM

Task: Given COc1ccc(O)c(S(=O)(=O)Nc2noc3cc(Cn4cccn4)cc(OC)c23)c1 [Example 83] , state its recorded Ki.
Output: 13.7 nM

Task: Given COc1cc(Cn2cccn2)cc2onc(NS(=O)(=O)c3cccc4c(C)ccnc34)c12 [Example 61] , state its recorded Ki.
Output: 0.95 nM

---

TGT: KAT6A (Homo sapiens (Human), UniProt Q92794)
TEST PROTOCOL: KAT assay (SAMDI mass spectrometry), KAT6A;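 also: Baculovirus-expressed KAT6A acetylating histone H3 (1-21) peptide (2 µM), 30-60 min at room temperature, % product conversion fitted to Morrison equation for tight-binding competitive inhibitors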
Assay type: biochemical
CONDITIONS: read-out: KAT6a Ki at 1 μM AcCoA; 1 μM AcCoA
ATTRIBUTE MEASURED: pKi
Note on pKi: it is the negative log10 of concentration, concentration in mol/L.

Task: Given COc1cc(Cn2cccn2)cc2onc(NS(=O)(=O)c3cc(F)c(F)c(F)c3)c12 , state its recorded pKi.
Output: 7.60

Task: Given COc1cc(Cn2cccn2)cc2onc(NS(=O)(=O)c3cccc(C)c3C#N)c12 , state its recorded pKi.
Output: 8.10

Task: Given COc1cccc(OC)c1S(=O)(=O)Nc1noc2cc(Cn3nccc3C)cc(OC)c12 , state its recorded pKi.
Output: 8.42

Task: Given COc1ccc(S(=O)(=O)Nc2noc3cc(Cn4cccn4)cc(OC)c23)c(OC)c1 , state its recorded pKi.
Output: 8.95

---

TGT: KAT7 (Homo sapiens (Human))
Sequence (O95251 whole entry): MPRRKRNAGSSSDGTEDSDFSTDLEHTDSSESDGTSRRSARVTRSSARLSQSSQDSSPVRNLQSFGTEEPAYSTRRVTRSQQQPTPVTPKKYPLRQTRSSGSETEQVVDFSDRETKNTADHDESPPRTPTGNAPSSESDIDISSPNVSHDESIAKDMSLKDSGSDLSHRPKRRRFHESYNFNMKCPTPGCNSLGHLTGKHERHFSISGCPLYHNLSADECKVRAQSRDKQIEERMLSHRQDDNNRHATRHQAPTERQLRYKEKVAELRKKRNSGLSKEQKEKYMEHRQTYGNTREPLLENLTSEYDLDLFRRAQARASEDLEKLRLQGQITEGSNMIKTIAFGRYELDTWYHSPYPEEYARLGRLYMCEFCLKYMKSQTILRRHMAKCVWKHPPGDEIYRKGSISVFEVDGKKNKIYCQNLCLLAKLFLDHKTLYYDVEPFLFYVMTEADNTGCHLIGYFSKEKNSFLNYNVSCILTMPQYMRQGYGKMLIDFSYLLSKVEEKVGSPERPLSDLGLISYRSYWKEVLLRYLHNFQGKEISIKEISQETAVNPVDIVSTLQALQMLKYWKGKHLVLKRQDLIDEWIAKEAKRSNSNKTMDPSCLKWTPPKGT
TEST PROTOCOL: KAT assay (SAMDI mass spectrometry), KAT7;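 also: Baculovirus-expressed enzyme acetylating a histone peptide at room temperature, percent conversion from product and substrate peak areas, Ki from a Morrison tight-binding competitive fit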
Format: biochemical
CONDITIONS: read-out: KAT7 Ki at 1 μM AcCoA
Hi there, I'd appreciate the recorded Ki for every entry that follows.
Give the value in nM but do not write nM after it.

Task: Given COc1cccc(OC)c1S(=O)(=O)Nc1noc2cc(Cn3cccn3)c(OC(F)F)cc12 , state its recorded Ki.
Output: 230

Task: Given COc1cc2c(cc1S(=O)(=O)Nc1noc3cc(Cn4cccn4)cc(OC)c13)CCOC2 , state its recorded Ki.
Output: 570

Task: Given COc1cccc(OC)c1S(=O)(=O)Nc1noc2cc(Cc3cnoc3)cc(OC)c12 , state its recorded Ki.
Output: 7400

Task: Given COc1cccc(OC)c1S(=O)(=O)Nc1noc2cc(Cn3nccc3C)cc(OC)c12 , state its recorded Ki.
Output: 1720

Task: Given COc1cc(Cn2cccn2)cc2onc(NS(=O)(=O)c3c(C)ccc4cccnc34)c12 , state its recorded Ki.
Output: 250

Task: Given COc1cccc(OC)c1S(=O)(=O)Nc1noc2cc(C(O)c3ccccn3)cc(OC)c12 (stereo not shown) , state its recorded Ki.
Output: 1900

Task: Given Cc1ccc(S(=O)(=O)Nc2noc3cc(Cn4cccn4)c(C)cc23)cc1C , state its recorded Ki.
Output: 662

Task: Given COCc1ccc(OC)c(S(=O)(=O)Nc2noc3cc(Cn4cccn4)c(F)cc23)c1 , state its recorded Ki.
Output: 630

Task: Given COc1cc(Cn2cccn2)cc2onc(NS(=O)(=O)c3ccc(C)cc3F)c12 , state its recorded Ki.
Output: 220

Task: Given COc1cc(C2CC2)cc(OC)c1S(=O)(=O)Nc1noc2cc(Cn3cccn3)cc(OC)c12 , state its recorded Ki.
Output: 20

Task: Given COc1cc(Cl)ccc1S(=O)(=O)Nc1noc2cc(Cn3cccn3)cc(OC)c12 , state its recorded Ki.
Output: 30

Task: Given COc1cc(Cn2cccn2)cc2onc(NS(=O)(=O)c3cccc(C(F)(F)F)c3)c12 , state its recorded Ki.
Output: 300

Task: Given COc1cccc(O)c1S(=O)(=O)Nc1noc2cc(Cn3cccn3)cc(OC)c12 , state its recorded Ki.
Output: 2060

Task: Given COc1ccc(S(=O)(=O)Nc2noc3cc(Cn4cccn4)ccc23)c(OC)c1 , state its recorded Ki.
Output: 420

Task: Given COc1cc2c(cc1S(=O)(=O)Nc1noc3cc(Cn4cccn4)cc(OC)c13)CCCO2 , state its recorded Ki.
Output: 160

Task: Given COc1cccc(OC)c1S(=O)(=O)Nc1noc2cc(Cc3ncccn3)cc(OC)c12 , state its recorded Ki.
Output: 95

Task: Given COc1ccc(OC)c(S(=O)(=O)Nc2noc3cc(Cn4cccn4)cc(OC)c23)c1 , state its recorded Ki.
Output: 150

Task: Given COc1ccccc1S(=O)(=O)Nc1noc2cc(Cn3cccn3)ccc12 , state its recorded Ki.
Output: 1200

Task: Given COc1cccc(OC)c1S(=O)(=O)Nc1noc2cc(Cn3ncc4ccccc43)cc(OC)c12 , state its recorded Ki.
Output: 1100
